Tested on: Saccharomyces cerevisiae
Assay: protein stability index of tFT-peptide fusion (C-terminal peptide) (PSI (0-1 scale)); higher = more stable (slower turnover)
Details: genetic background: wild type; temperature: 37 C
readout: protein stability index
Reply with just the number.

stdin: Form entry - test system: Saccharomyces cerevisiae; read-out: protein stability index; sequence: VGLWFLCSLAFS;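 also: PSI is a weighted mean of sequencing reads over stability bins, variants kept only with over 10 reads, mCherry proximal and sfGFP distal, peptide attached via GGGS linker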
stdout: 0.495

stdin: Now this one: FILLFGFSHWVW
stdout: 0.476

stdin: Also VTWNFIVYVCCF ?
stdout: 0.219

stdin: Continue with RGLWAAIPRKCT
stdout: 0.548

stdin: Here is the next sequence: LWRRSLLLLRCC
stdout: 0.0618

stdin: Next record, please: PILRGRPTPAIL
stdout: 0.703

stdin: And the next one, DECQLCNRDWRG ?
stdout: 0.733

stdin: Next sequence: CLAGALSWLRRG
stdout: 0.703

stdin: Try this sequence next: APPFPSLSSFAP
stdout: 0.718

stdin: Now the same for ETVHVISLIAIG
stdout: 0.496

stdin: Same thing, different sequence: LWFGAWWLGAVG
stdout: 0.32

stdin: Now the same for FLFFMGVGVVLY
stdout: 0.425

stdin: Also check PGSIGVVIAVRS
stdout: 0.517

stdin: Try the sequence GRGRGGRWGRLC
stdout: 0.476

stdin: Now the sequence FRHKLSLGLVIV
stdout: 0.534

stdin: What do we get for SSLLLLCCLLVG ?
stdout: 0.403

stdin: And what about the sequence CLYATQFWGRYG ?
stdout: 0.6

stdin: Another sequence to look at: APPPVAPAPGSA
stdout: 0.672

stdin: Moving on to GSLGHCWFLFGV
stdout: 0.475

stdin: Quick one: GIGVVWLDVFKT
stdout: 0.504

stdin: Then RHVFLRIKVLNL ?
stdout: 0.52

stdin: Next entry: ALEIIRLSHRLC
stdout: 0.113

stdin: Record: PGVWVVILRWWV
stdout: 0.182

stdin: // query: RWRRWCVVLFVV
stdout: 0.0816

stdin: Okay, and FWVNFLFVLFIL ?
stdout: 0.307

stdin: // next record CTYSLSVLFVFF
stdout: 0.446

stdin: Now give it for WLISLLVQPVFL too.
stdout: 0.37

stdin: Try this sequence too: QWTVRNQGVMQR
stdout: 0.721
